Give measured TGI for each item. Keep answers brief.
- Tested on: 786-0 renal
- PROTOCOL_TEXT: NCI tumour cell line growth inhibition, 48 h

Lab book: TGI of CC1=C2CC3=C(C)C(=O)O[C@H]3C[C@@H](C)[C@@H]2CC1 noted as > 100 µM

Lab book: TGI of COC(=O)C1CCC2(CC1)NC(=O)NC2=O (centres undefined) noted as > 100 µM

Lab book: TGI of C#Cc1cccc(NC(=O)Nc2cccc(NC(=O)CCl)c2)c1 noted as > 82.5 µM

Lab book: TGI of N#Cc1ccccc1C#C/C=C\C#Cc1cnccn1 noted as > 79.3 µM
